This listing pairs molecules with measured %Inh.
# Tested on: AURKC
# Test Settings: concentration: 1 μM, replicates: in singlicate; n = 1

Molecule	%Inh / %
O=C1NC(=O)C(c2ccc(Cl)cc2)=C1Nc1ccc(O)cc1	0
Cc1ccccc1Cn1ccn2c(=O)cc(N3CCOCC3)nc12	0
O=C(Nc1n[nH]c2nc(-c3cccs3)c(Br)cc12)C1CC1	6
Cc1ccccc1-c1cc(-c2c[nH]nc2-c2ccccn2)ccn1	6
COc1cccc(C2=C(Nc3cc(Cl)c(O)c(Cl)c3)C(=O)NC2=O)c1	8
Cc1ccc(NC(=O)Nc2ccc(Cl)c(C(F)(F)F)c2)cc1-c1ccc(C(=O)Nc2ccncc2)cc1	8
CCCCc1nn2ncccc2c1-c1ccnc(NC2CC2)n1	38
COc1ccc(CSc2nnc(-c3ccc4nccn4c3)o2)cc1C(F)(F)F	15
CN1c2ccc(-c3ccc(C(N)=O)cc3)cc2-c2[nH]ncc2S1(=O)=O	0
CC(=O)c1c(C)c2cnc(Nc3ccc(N4CCNCC4)cn3)nc2n(C2CCCC2)c1=O	0
Cc1c(Cn2c3ccccc3n3c(=O)cc(N4CCOCC4)nc23)cccc1C(F)(F)F	14
COc1ccc(Nc2nccc(N3CCC(NC(=O)C(C)c4ccc(Cl)cc4)C3)n2)cc1 (centres unmarked)	49
COC(=O)C(NC(=O)NC1CCN(c2ccnc(Nc3ccc(F)cc3)n2)C1)c1ccccc1 (centres unmarked)	32
COC(=O)c1cccc(NC(=O)NC2CCN(c3ccnc(Nc4ccc(F)cc4)n3)C2)c1 (centres unmarked)	34
COc1ccc2cc(-c3nc(-c4ccccc4C(C)C)[nH]c3-c3ccncc3)ccc2c1	0
COc1cccc(CNC(=O)NC2CCN(c3ccnc(Nc4ccc(F)cc4)n3)C2)c1 (centres unmarked)	49
O=C1NC(=O)C(c2ccc(Cl)cc2)=C1Nc1cccc(Cl)c1	0
O=c1cc(N2CCOCC2)nc2n(Cc3cccc(Cl)c3Cl)c3ccccc3n12	46
Cc1c(Cn2c(C)c(C)n3c(=O)cc(N4CCOCC4)nc23)cccc1C(F)(F)F	0
O=c1cc(N2CCOCC2)nc2n(Cc3ccccc3F)ccn12	0

----------
# System: QSK
# Test Settings: concentration: 1 μM, replicates: in singlicate; n = 1
This listing pairs compounds with measured %Inh.

Compound Smiles	%Inh [%]
CC(C)c1ccc(O)cc1Nc1ccnc2ccc(C(F)(F)F)cc12	0
CSc1ccc(-c2nc3n(c2-c2ccncc2)CCC3)cc1	31
CNCc1ccc2nc(NC(=O)c3ccc(C(C)(C)C)cc3)cn2c1	12
COc1ccc(Nc2nccc(NCCNC(=O)Nc3cc(C)ccc3C)n2)cc1	0

----------
Reported Kd, CDKL2.
Readout Label: Kd (nM)

Compound Smiles	Readout Label	Display Unit	Test Value
O=C(Nc1n[nH]c2cc(-c3ccsc3)ccc12)C1CC1	Kd	nM	100
O=C(Nc1n[nH]c2nc(-c3cccs3)c(Br)cc12)C1CC1	Kd	nM	140
O=C(Nc1n[nH]c2nc(-c3cccs3)c(Br)cc12)C1CCCC1	Kd	nM	330

----------
This listing pairs molecules with measured %Inh.
# System: CSNK2A2
# Test Settings: concentration: 1 μM, replicates: in singlicate; n = 1

Molecule	%Inh / %
CCc1ccc(-c2ccc3c(c2)-c2n[nH]cc2S(=O)(=O)N3C)cc1	0
Nc1ncnc2occ(-c3ccc4c(c3)CCN4C(=O)Cc3cc(F)ccc3F)c12 [GSK2645446]	11
CNc1nc(-c2ccc3c(N)n[nH]c3c2)cc(N2C[C@@H](C(=O)NC3CCCCC3)OC[C@H]2C)n1 [GSK2375584]	8
COc1ccc(Nc2nccc(N3CCC(NC(=O)C(C)c4ccc(Cl)cc4)CC3)n2)cc1 (stereo not drawn) [GSK1379812]	21
Cn1cncc1C(=O)NC1CCN(c2ccnc(Nc3ccc(F)cc3)n2)C1 (stereo not drawn) [GSK1379717]	0
Cl.Cl.Cl.N#Cc1ccc(CCNc2nccc(-c3cccc(CN4CCNCC4)c3)n2)cc1 [GSK2137462]	30
COc1ccc(CSc2nnc(-c3ccc4ncsc4c3)o2)cc1C(F)(F)F	2
COc1ccc(-c2coc3ccc(-c4nnc(C)o4)cc23)cc1	15
COc1cccc(C2=C(Nc3cc(Cl)c(O)c(Cl)c3)C(=O)NC2=O)c1 [SB-390767]	0

----------
# System: MEK2
# Construct: gene MAP2K2
# Test Settings: concentration: 1 μM, replicates: in singlicate; n = 1
This listing pairs compounds with measured %Inh.
Readout Label: %Inh

Compound	Study System	Readout Label	Test Value
Cc1ccc(NC(=O)Nc2ccc(Cl)c(C(F)(F)F)c2)cc1-c1ccc(C(=O)Nc2ccncc2)cc1	MEK2	%Inh	0%
CNCc1ccc2nc(NC(=O)c3ccc(C(C)(C)C)cc3)cn2c1	MEK2	%Inh	27%
CCn1c(-c2c(N)noc2C)nc2cnccc21	MEK2	%Inh	2%
CC(=O)c1c(C)c2cnc(Nc3ccc(N4CCNCC4)cn3)nc2n(C2CCCC2)c1=O	MEK2	%Inh	0%
O=C1NC(=O)C(c2ccc(Cl)cc2)=C1Nc1cccc(Cl)c1	MEK2	%Inh	13%
Cn1cncc1C(=O)NC1CCN(c2ccnc(Nc3ccc(F)cc3)n2)C1 (stereo not drawn)	MEK2	%Inh	0%
COc1cc2ncnc(Nc3cccc(Br)c3)c2cc1OC.Cl	MEK2	%Inh	0%
Nc1ncnc2occ(-c3ccc4c(c3)CCN4C(=O)Cc3cc(F)ccc3F)c12	MEK2	%Inh	0%
CC(C)c1ccc(O)cc1Nc1ccnc2ccc(C(F)(F)F)cc12	MEK2	%Inh	0%
COc1ccc(Nc2nccc(NCCNC(=O)Nc3cc(C)ccc3C)n2)cc1	MEK2	%Inh	0%
COc1nccc(-c2c(-c3ccc(F)cc3)ncn2CCCN2CCOCC2)n1	MEK2	%Inh	25%
Cl.Cl.Cl.N#Cc1ccc(CCNc2nccc(-c3cccc(CN4CCNCC4)c3)n2)cc1	MEK2	%Inh	0%
CC(=O)c1cccc(NC(=O)NC2CCN(c3ccnc(Nc4ccc(F)cc4)n3)C2)c1 (stereo not drawn)	MEK2	%Inh	16%
CNc1nc(-c2ccc3c(N)n[nH]c3c2)cc(N2C[C@@H](C(=O)Nc3ccccc3)CC[C@H]2C)n1	MEK2	%Inh	0%
NS(=O)(=O)c1cccc(N/C=C2\C(=O)Nc3ccc(S(=O)(=O)Cc4c(Cl)cccc4Cl)cc32)c1	MEK2	%Inh	0%
Cc1nccc(-c2c(-c3ccc(F)cc3)ncn2CCCN2CCOCC2)n1.Cl	MEK2	%Inh	33%
COC(=O)C(Cc1ccccc1)NC(=O)NC1CCN(c2ccnc(Nc3ccc(F)cc3)n2)C1 (stereo not drawn)	MEK2	%Inh	0%
FC(F)(F)c1ccccc1-c1cc(-c2c[nH]nc2-c2ccccn2)ccn1	MEK2	%Inh	0%

----------
# System: EPHA3
# Test Settings: concentration: 1 μM, replicates: in singlicate; n = 1
Readout Label: %Inh (%)

Compound	Readout Label	Test Value
O=C(Nc1n[nH]c2cc(-c3ccsc3)ccc12)C1CC1 [SB-732932]	%Inh	13
CNc1nc(-c2ccc3c(N)n[nH]c3c2)cc(N2C[C@@H](C(=O)NC3CCCCC3)OC[C@H]2C)n1 [GSK2375584]	%Inh	0
CNc1cc(-c2ccc3c(N)n[nH]c3c2)nc(N)n1 [GSK2224810]	%Inh	27
Fc1ccc(-c2nc3n(c2-c2ccncc2)CCS3)cc1 [GI98581]	%Inh	0
CC(=O)c1c(C)c2cnc(Nc3ccc(N4CCNCC4)cn3)nc2n(C2CCCC2)c1=O	%Inh	0
CCn1c(-c2c(N)noc2C)nc2cnccc21 [SB-737856]	%Inh	0
COc1cc2ncnc(Nc3cccc(Br)c3)c2cc1OC.Cl [GI230329]	%Inh	33
Nc1cccc(-c2ccc3c(N)n[nH]c3c2)n1 [GSK2192730]	%Inh	4
COc1cccc(CNC(=O)NC2CCN(c3ccnc(Nc4ccc(F)cc4)n3)C2)c1 (stereo not drawn) [GSK1379723]	%Inh	0

----------
# System: CDC2L1
# Construct: gene CDK11B
# Test Settings: concentration: 1 μM, replicates: in singlicate; n = 1
This listing pairs compounds with measured %Inh.
Readout Label: %Inh (%)

Compound	Study System	Display Unit	Test Value
O=c1cc(N2CCOCC2)nc2n(Cc3ccccc3F)ccn12	CDC2L1	%	0
Cc1ccc(NC(=O)Nc2ccc(Cl)c(C(F)(F)F)c2)cc1-c1ccc(C(=O)Nc2ccncc2)cc1	CDC2L1	%	0
O=C(Nc1n[nH]c2nc(-c3ccco3)c(Br)cc12)C1CCN(Cc2ccccc2)C1.O=C(O)[C@H](O)[C@@H](O)C(=O)O (stereo not drawn)	CDC2L1	%	20
O=C(Nc1n[nH]c2cc(-c3ccsc3)ccc12)C1CC1	CDC2L1	%	13
CC(C)c1ccc(O)cc1Nc1ccnc2ccc(C(F)(F)F)cc12	CDC2L1	%	0
COc1cccc(NC(=O)Nc2ccc(C)c(-c3ccc(C(=O)Nc4ccncc4)cc3)c2)c1	CDC2L1	%	0
O=C(Nc1n[nH]c2nc(-c3cccs3)c(Br)cc12)C1CC1	CDC2L1	%	1
CNC(=O)c1ccc(C)c(-n2c(C)cc(OCc3ccc(F)cc3F)c(Br)c2=O)c1	CDC2L1	%	0
c1ccc(-c2ccnc3[nH]ccc23)cc1	CDC2L1	%	0
